Counter-ions that a name gives are not always drawn.
Hi! I'm sharing some IC50 results obtained with IP3 -bonded protein (acceptor) (Bos taurus).
Sequence (Q9TU34 whole entry): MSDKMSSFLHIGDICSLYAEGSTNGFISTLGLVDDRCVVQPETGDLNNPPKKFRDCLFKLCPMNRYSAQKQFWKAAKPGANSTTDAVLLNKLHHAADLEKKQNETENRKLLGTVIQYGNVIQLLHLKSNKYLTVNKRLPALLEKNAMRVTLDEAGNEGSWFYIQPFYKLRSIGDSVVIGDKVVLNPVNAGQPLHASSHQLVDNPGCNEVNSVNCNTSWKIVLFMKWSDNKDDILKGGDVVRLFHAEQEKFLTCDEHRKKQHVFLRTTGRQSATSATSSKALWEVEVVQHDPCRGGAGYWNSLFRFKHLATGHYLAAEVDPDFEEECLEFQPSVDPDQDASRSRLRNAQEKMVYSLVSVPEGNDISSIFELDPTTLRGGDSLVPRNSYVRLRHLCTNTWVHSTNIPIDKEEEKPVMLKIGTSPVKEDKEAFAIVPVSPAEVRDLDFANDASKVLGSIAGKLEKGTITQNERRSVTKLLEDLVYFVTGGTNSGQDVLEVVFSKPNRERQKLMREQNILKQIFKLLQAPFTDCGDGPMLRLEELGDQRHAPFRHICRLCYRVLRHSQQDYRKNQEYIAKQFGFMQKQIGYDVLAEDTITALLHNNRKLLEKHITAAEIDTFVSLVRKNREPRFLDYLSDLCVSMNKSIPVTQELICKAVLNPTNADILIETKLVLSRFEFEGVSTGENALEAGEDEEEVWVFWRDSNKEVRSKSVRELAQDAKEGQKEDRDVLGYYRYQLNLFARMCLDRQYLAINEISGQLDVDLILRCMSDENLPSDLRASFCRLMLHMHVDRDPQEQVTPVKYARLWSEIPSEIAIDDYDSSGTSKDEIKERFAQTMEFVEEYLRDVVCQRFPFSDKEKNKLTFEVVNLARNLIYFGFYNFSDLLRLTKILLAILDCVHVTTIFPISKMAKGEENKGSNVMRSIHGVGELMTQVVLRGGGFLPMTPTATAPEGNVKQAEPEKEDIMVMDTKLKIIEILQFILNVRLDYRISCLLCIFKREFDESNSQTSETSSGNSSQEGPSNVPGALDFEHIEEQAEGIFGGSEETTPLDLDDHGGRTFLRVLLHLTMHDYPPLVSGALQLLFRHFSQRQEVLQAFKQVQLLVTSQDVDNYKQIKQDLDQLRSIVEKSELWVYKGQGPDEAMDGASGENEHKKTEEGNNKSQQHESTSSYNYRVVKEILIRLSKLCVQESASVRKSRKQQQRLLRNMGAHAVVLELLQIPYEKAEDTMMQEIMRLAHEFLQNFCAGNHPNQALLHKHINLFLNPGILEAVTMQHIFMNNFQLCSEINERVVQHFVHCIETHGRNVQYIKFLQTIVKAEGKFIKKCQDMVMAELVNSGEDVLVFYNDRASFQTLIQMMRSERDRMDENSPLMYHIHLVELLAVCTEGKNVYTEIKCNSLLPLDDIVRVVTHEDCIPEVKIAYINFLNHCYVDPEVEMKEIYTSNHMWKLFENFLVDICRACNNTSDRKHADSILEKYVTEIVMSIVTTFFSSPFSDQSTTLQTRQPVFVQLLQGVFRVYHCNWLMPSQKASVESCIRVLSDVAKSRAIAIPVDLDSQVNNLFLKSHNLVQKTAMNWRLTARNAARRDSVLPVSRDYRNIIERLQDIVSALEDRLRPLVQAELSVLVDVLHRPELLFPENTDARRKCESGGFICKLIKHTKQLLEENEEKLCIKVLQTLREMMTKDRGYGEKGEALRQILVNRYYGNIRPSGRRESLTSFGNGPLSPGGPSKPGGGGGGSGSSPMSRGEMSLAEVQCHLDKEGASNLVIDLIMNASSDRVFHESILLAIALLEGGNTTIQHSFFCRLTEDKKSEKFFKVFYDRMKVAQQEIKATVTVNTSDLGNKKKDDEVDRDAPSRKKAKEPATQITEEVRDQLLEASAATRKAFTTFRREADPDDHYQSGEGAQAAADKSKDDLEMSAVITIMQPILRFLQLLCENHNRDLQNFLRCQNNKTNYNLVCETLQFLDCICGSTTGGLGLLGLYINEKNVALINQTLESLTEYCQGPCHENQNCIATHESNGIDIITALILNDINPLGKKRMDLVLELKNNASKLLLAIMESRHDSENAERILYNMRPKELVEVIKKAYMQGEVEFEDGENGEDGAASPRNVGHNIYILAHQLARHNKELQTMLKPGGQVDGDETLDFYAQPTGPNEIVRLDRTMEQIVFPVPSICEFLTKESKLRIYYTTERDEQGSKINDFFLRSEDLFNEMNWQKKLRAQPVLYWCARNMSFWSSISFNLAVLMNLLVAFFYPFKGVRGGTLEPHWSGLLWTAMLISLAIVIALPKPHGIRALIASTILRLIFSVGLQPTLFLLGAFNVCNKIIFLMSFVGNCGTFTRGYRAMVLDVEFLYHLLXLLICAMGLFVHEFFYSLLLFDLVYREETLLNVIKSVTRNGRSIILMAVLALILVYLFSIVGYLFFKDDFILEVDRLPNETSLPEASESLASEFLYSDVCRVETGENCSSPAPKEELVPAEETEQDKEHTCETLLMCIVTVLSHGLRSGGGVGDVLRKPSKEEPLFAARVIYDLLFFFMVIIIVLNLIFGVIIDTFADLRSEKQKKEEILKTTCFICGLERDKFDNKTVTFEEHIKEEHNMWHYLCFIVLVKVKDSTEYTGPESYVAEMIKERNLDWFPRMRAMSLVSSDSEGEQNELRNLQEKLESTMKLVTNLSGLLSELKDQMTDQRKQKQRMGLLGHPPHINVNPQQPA
One number for each entry, in nM.

Below: 3 molecules and their reported IC50.
NC1CCC(C(=O)O[C@@H]2[C@H](O)[C@@H](OP(=O)(O)O)[C@H](OP(=O)(O)O)[C@@H](O)[C@@H]2OP(=O)(O)O)CC1 (relative stereo) | 4.2
O=C(NCCc1ccc(O)c(N=Nc2ccc(C(=O)O[C@@H]3[C@H](O)[C@@H](OP(=O)(O)O)[C@H](OP(=O)(O)O)[C@@H](O)[C@@H]3OP(=O)(O)O)cc2)c1)c1ccccc1 (relative stereo) [Compound 9DL, triammonium salt] | 6.8
[N-]=[N+]=Nc1ccc(C(=O)O[C@@H]2[C@H](O)[C@@H](OP(=O)(O)O)[C@H](OP(=O)(O)O)[C@@H](O)[C@@H]2OP(=O)(O)O)cc1 (relative stereo) [Compound 8DL, triammonium salt] | 5

Task: For the molecule O=P(O)(O)O[C@@H]1[C@H](O)[C@H](O)[C@@H](OP(=O)(O)O)[C@H](OP(=O)(O)O)[C@H]1O [IP3, inositol-1,4,5-triphosphoric acid, reference compound] , what IC50 is on record?
Result: 1.4

====

Provide the reported IC50 of each item.
Molecular target: IP4 -3-phosphatase (Homo sapiens)
Construct: from tissue; host or cells: human red cell ghosts (blood)
Sequence (Q9UNW1 31-487): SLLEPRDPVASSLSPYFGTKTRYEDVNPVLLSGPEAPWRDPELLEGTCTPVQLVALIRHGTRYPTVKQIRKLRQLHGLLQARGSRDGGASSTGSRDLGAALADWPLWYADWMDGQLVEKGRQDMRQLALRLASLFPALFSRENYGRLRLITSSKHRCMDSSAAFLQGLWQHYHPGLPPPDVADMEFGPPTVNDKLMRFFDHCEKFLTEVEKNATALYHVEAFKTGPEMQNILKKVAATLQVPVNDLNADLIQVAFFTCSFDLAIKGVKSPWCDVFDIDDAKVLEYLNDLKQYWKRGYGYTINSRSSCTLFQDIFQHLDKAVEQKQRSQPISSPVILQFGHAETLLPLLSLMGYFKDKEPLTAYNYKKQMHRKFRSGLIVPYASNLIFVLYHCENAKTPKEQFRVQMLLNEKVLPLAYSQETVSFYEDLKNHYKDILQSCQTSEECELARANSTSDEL
Assay: Interaction with IP4 -3-phosphatase, human red cell ghosts
Format: biochemical
Conditions: calculated from FIG. 24, read-out: IC50 [3H]IP4 -3-phosphatase
Numbers only, in nM.

Nc1ccc(C(=O)O[C@@H]2[C@H](OP(=O)(O)O)[C@@H](OP(=O)(O)O)[C@H](OP(=O)(O)O)[C@@H](O)[C@@H]2OP(=O)(O)O)cc1 (relative stereo) [KG194] | 1400
NC1CCC(C(=O)O[C@@H]2[C@H](OP(=O)(O)O)[C@@H](OP(=O)(O)O)[C@H](OP(=O)(O)O)[C@@H](O)[C@@H]2OP(=O)(O)O)CC1 (relative stereo) [KG210] | 3300

Task: What value of IC50 on IP4 -3-phosphatase (Homo sapiens) does O=P(O)(O)O[C@H]1[C@H](O)[C@@H](OP(=O)(O)O)[C@H](OP(=O)(O)O)[C@@H](OP(=O)(O)O)[C@H]1O [IP4, inositol-1,3,4,5-tetraphosphoric acid, reference compound] have?
Result: 2800
